TEST_DESCRIPTION: Metabolic stability in human liver S9 fraction assessed as compound remaining in absence of NADPH at 1 mg/mL after 60 mins by LC-MS/PDA analysis
Assay type: ADME
CONDITION_LABEL: read-out: Stability
VALUE_KIND: remaining at 1 h (%)
State just the number; it will be interpreted in %.

Reported remaining at 1 h, molecule C[C@@H](c1ccc2nccn2c1)n1nnc2ncc(-c3cnn(C)c3)nc21 : ____
99.7

====

ASSAYED_TARGET: Hepatocyte growth factor receptor (Homo sapiens)
TEST_DESCRIPTION: Inhibition of c-Met (unknown origin) using Poly E4Y substrate and ATP incubated for 45 mins by fluorescence polarization assay
IC50 for assorted compounds
State just the number; it will be interpreted in µM.

>>> recorded_value("C[C@@H](c1ccc2nccn2c1)n1nnc2ncc(-c3cnn(C)c3)nc21 [SAVOLITINIB]")
0.005

Attention now turns to another entry.
Give recorded IC50 with Hepatocyte growth factor receptor (Homo sapiens) for the following compound: C[C@H](c1ccc2nccn2c1)n1nnc2ncc(-c3cnn(C)c3)nc21
0.032

====

TEST_DESCRIPTION: Half life in ICR mouse at 14.1 mg/kg, po
Assay type: ADME, organism-based
Design: dose 14.1 mg/kg, route oral
CONDITION_LABEL: in vivo
VALUE_KIND: half-life (h)
State just the number; it will be interpreted in h.

>>> recorded_value("Cn1cc(-c2cnc3nnn(Cc4ccc5nccn5c4)c3n2)cn1")
1.3
>>> recorded_value("OCCn1cc(-c2cnc3nnn(Cc4ccn5nccc5c4)c3n2)cn1")
3.7

Attention now turns to another entry.
Reported half-life, molecule C[C@@H](c1ccc2nccn2c1)n1nnc2ncc(-c3cnn(C)c3)nc21 : ____
1.7

====

TEST_DESCRIPTION: Solubility of the compound in aqueous buffer at pH 1.2 by HPLC method
Type: physicochemical
solubility for assorted compounds
State just the number; it will be interpreted in mg/mL.

>>> recorded_value("C[C@@H](c1ccc2nccn2c1)n1nnc2nc(O)c(-c3cnn(C)c3)nc21")
20.9

Attention now turns to another entry.
Reported solubility, compound C[C@@H](c1ccc2nccn2c1)n1nnc2ncc(-c3cnn(C)c3)nc21 : ____
31.8

====

remaining at 0.5 h, 1 µM for assorted compounds
TEST_DESCRIPTION: Metabolic stability in mouse liver microsomes assessed as compound remaining at 1 uM after 30 mins
Format: ADME
CONDITION_LABEL: read-out: Stability
State just the number; it will be interpreted in %.

Some solved entries appear below for comparison.
>>> recorded_value("FC(F)(F)Cn1cc(-c2cnc3nnn(Cc4ccn5nccc5c4)c3n2)cn1")
63.6
>>> recorded_value("FC(F)(F)Cn1cc(-c2cnc3nnn(Cc4n[nH]c5ncccc45)c3n2)cn1")
83
>>> recorded_value("Cn1cc(-c2cnc3nnn(Cc4n[nH]c5ncccc45)c3n2)cn1")
102
>>> recorded_value("Cn1cc(-c2cnc3nnn(Cc4ccn5nccc5c4)c3n2)cn1")
36.7
>>> recorded_value("Cn1cc(-c2cnc3nnn(Cc4cc5[nH]ncc5s4)c3n2)cn1")
19.4
>>> recorded_value("Cn1cc(-c2cnc3nnn(Cc4ccc5nccn5c4)c3n2)cn1")
70.8
>>> recorded_value("OCCn1cc(-c2cnc3nnn(Cc4c[nH]c5ncccc45)c3n2)cn1")
82.6
>>> recorded_value("OCCn1cc(-c2cnc3nnn(Cc4ccn5nccc5c4)c3n2)cn1")
93.3

Reported remaining at 0.5 h, 1 µM, compound Cn1cc(-c2cnc3nnn(Cc4cc5cnccc5s4)c3n2)cn1 : ____
23.5

====

Vd for assorted compounds
TEST_DESCRIPTION: Apparent volume of distribution in ICR mouse at 2.5 mg/kg, iv
Type: ADME, organism-based
Design: dose 2.5 mg/kg, route intravenous
CONDITION_LABEL: in vivo, read-out: Vz
Record the result as a number with its unit.

>>> recorded_value("OCCn1cc(-c2cnc3nnn(Cc4ccn5nccc5c4)c3n2)cn1")
"2.4 L/kg"
>>> recorded_value("Cn1cc(-c2cnc3nnn(Cc4ccc5nccn5c4)c3n2)cn1")
"5.4 L/kg"

Attention now turns to another entry.
Reported Vd, compound C[C@@H](c1ccc2nccn2c1)n1nnc2ncc(-c3cnn(C)c3)nc21 : ____
1.2 L/kg

====

System: NCI-H441
TEST_DESCRIPTION: Antiproliferative activity against human NCI-H441 cells assessed as HGF-induced proliferation after 72 hrs by MTT assay
CONDITION_LABEL: NCI-H441, 72 h
VALUE_KIND: pIC50
The scale used: pIC50 is minus the common logarithm of the concentration in molar units.

>>> recorded_value("N#Cc1ccc(-c2cnc3nnn(Cc4ccc5nccn5c4)c3n2)cn1")
6.69
>>> recorded_value("Cn1cc(-c2cnc3nnn(Cc4n[nH]c5ncccc45)c3n2)cn1")
7.18
>>> recorded_value("OCCn1cc(-c2cnc3nnn(Cc4ccc5nccn5c4)c3n2)cn1")
6.74
>>> recorded_value("FC(F)(F)Cn1cc(-c2cnc3nnn(Cc4ccn5nccc5c4)c3n2)cn1")
7.11

Attention now turns to another entry.
Reported pIC50, compound FC(F)(F)Cn1cc(-c2cnc3nnn(Cc4ccc5nccn5c4)c3n2)cn1 : ____
6.98

====

Test system: NCI-H441
TEST_DESCRIPTION: Antiproliferative activity against human NCI-H441 cells assessed as HGF-induced proliferation after 72 hrs by MTT assay
CONDITION_LABEL: NCI-H441, 72 h
pIC50: −log10 of the molar value.
Lab note: compare pIC50 against 7. Equal or greater, write MET. Smaller, write NOT MET.

>>> group("OCCn1cc(-c2cnc3nnn(Cc4n[nH]c5ncccc45)c3n2)cn1")
"NOT MET"
>>> group("OCCn1cc(-c2cnc3nnn(Cc4c[nH]c5ncccc45)c3n2)cn1")
"MET"
>>> group("Cn1cc(-c2cnc3nnn(Cc4cc5cnccc5s4)c3n2)cn1")
"NOT MET"
>>> group("Cn1cc(-c2cnc3nnn(Cc4ccc5nccn5n4)c3n2)cn1")
"NOT MET"

Assess whether reported pIC50 for C[C@@H](c1ccn2nccc2c1)n1nnc2ncc(-c3cnn(CCO)c3)nc21 sits at 7 or higher.
MET

Another molecule to look at: C[C@@H](c1ccc2nccn2c1)n1nnc2ncc(-c3cnn(C)c3)nc21 [SAVOLITINIB]
MET

Another molecule to look at: C[C@H](c1ccn2nccc2c1)n1nnc2ncc(-c3cnn(CCO)c3)nc21
NOT MET

Another molecule to look at: Cn1cc(-c2cnc3nnn(Cc4ccn5nccc5c4)c3n2)cn1
NOT MET

====

pIC50 for assorted compounds
Tested on: NCI-H441
TEST_DESCRIPTION: Antiproliferative activity against human NCI-H441 cells assessed as HGF-induced proliferation after 72 hrs by MTT assay
CONDITION_LABEL: NCI-H441, 72 h
The scale used: pIC50 is minus the common logarithm of the concentration in molar units.

Some solved entries appear below for comparison.
>>> recorded_value("OCCn1cc(-c2cnc3nnn(Cc4ccn5nccc5c4)c3n2)cn1")
7.18
>>> recorded_value("Cn1cc(-c2cnc3nnn(Cc4ccc5nccn5c4)c3n2)cn1")
7.14
>>> recorded_value("Cn1cc(-c2cnc3nnn(Cc4cc5[nH]ncc5s4)c3n2)cn1")
6.75
>>> recorded_value("Cn1cc(-c2cnc3nnn(Cc4ccc5ncnn5c4)c3n2)cn1")
6.37
>>> recorded_value("FC(F)(F)Cn1cc(-c2cnc3nnn(Cc4n[nH]c5ncccc45)c3n2)cn1")
7.15
>>> recorded_value("C[C@H](c1ccc2nccn2c1)n1nnc2ncc(-c3cnn(C)c3)nc21")
6.95
>>> recorded_value("Fc1ccc(-c2cnc3nnn(Cc4ccc5nccn5c4)c3n2)cc1")
6.94

Attention now turns to another entry.
Reported pIC50, compound N#Cc1ccc(-c2cnc3nnn(Cc4n[nH]c5ncccc45)c3n2)cn1 : ____
6.76

Reference source for all entries: ChEMBL document CHEMBL3351544
